In this section, each of the compounds is paired with its reported pIC50.
target: Recombinant STAT6 protein (STAT6(W123-T658)) (Homo sapiens, UniProt P42226); construct: STAT6(W123-T658); test: STAT6 Fluorescence Polarization (FP) Assay; conditions: STAT6(W123-T658) 250 nM, probe 5-FAM-ApYKPFQDLI-NH2 2 nM, 45-minute incubation
Sequence (P42226 123-658, species assumed): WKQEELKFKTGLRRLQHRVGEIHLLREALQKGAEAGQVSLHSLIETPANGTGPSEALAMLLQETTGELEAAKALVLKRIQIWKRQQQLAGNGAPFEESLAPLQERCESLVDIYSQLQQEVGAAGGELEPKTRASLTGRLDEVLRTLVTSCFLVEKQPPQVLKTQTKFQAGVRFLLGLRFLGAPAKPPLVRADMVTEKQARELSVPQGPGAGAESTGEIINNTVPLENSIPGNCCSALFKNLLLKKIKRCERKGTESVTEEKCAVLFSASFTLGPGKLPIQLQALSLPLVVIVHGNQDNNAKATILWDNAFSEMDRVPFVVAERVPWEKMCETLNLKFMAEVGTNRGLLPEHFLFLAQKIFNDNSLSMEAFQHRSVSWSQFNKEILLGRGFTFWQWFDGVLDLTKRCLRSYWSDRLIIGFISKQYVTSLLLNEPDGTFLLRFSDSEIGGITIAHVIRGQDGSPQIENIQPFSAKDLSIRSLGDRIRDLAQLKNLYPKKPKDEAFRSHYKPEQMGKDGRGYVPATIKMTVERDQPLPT
pIC50: −log10 of the molar value.
measured quantity: pIC50

[[record]]
compound = "CC(=O)N1CC[C@@H]2[C@H]1CN2C(=O)[C@@H]1CC[C@@H]2C[C@H]3C[C@H]3C[C@H](NC(=O)c3cc4cc(C(F)P(=O)(O)O)ccc4s3)C(=O)N21 (stereo partly shown)"
meas_value = "4.52 to 5.52"

[[record]]
compound = "O=C(N[C@H]1C[C@@H]2C[C@@H]2C[C@H]2CC[C@@H](C(=O)N[C@H]3CN(c4cncnc4)C[C@@H]3F)N2C1=O)c1cc2cc(CP(=O)(O)O)ccc2s1"
meas_value = "< 4.52"

[[record]]
compound = "COC1(c2nccn2C)CN(C(=O)[C@@H]2CC[C@@H]3CC4(C)CC4C[C@H](NC(=O)c4cc5cc(C(F)(F)P(=O)(O)O)ccc5s4)C(=O)N32)C1 (stereo in doubt)"
meas_value = "4.52 to 5.52"

[[record]]
compound = "COCC1(F)CN(c2ccncc2C2CN(C(=O)[C@@H]3CC[C@@H]4C[C@H]5C[C@H]5C[C@H](NC(=O)c5cc6cc([C@@H](F)P(=O)(O)O)ccc6s5)C(=O)N43)C2)C1"
meas_value = "< 4.52"

[[record]]
compound = "Cc1nnc(C2CN(C(=O)[C@@H]3CC[C@@H]4C[C@@H]5C[C@@H]5C[C@H](NC(=O)c5cc6cc(C(F)(F)P(=O)(O)O)ccc6s5)C(=O)N43)C2)[nH]1"
meas_value = "5.52 to 6.52"

[[record]]
compound = "C[C@H]1COCCN1C(=O)C1CN(C(=O)[C@@H]2CC[C@@H]3C[C@H]4C[C@H]4C[C@H](NC(=O)c4cc5cc(C(F)(F)P(=O)(O)O)ccc5s4)C(=O)N32)C1"
meas_value = "4.52 to 5.52"

[[record]]
compound = "CC(=O)N1CC2(C1)CN(C(=O)[C@@H]1CC[C@@H]3C[C@H]4C[C@H]4C[C@H](NC(=O)c4cc5cc(C(F)(F)P(=O)(O)O)ccc5s4)C(=O)N31)C2"
meas_value = "5.52 to 6.52"

[[record]]
compound = "O=C(N[C@H]1C[C@@H]2C[C@@H]2C[C@H]2CC[C@@H](C(=O)N3CC(F)(c4ccccc4)C3)N2C1=O)c1cc2cc(C(F)(F)P(=O)(O)O)ccc2s1"
meas_value = "5.52 to 6.52"

[[record]]
compound = "CN(C)c1ccncc1C1CN(C(=O)[C@@H]2CC[C@@H]3C[C@@H]4C[C@@H]4C[C@H](NC(=O)c4cc5cc([C@@H](F)P(=O)(O)O)ccc5s4)C(=O)N32)C1 (single isomer, unassigned)"
meas_value = "4.52 to 5.52"

[[record]]
compound = "CS(=N)(=O)CC1CN(C(=O)[C@@H]2CC[C@@H]3C[C@@H]4C[C@@H]4C[C@H](NC(=O)c4cc5cc(C(F)(F)P(=O)(O)O)ccc5s4)C(=O)N32)C1 (stereo partly shown)"
meas_value = "4.52 to 5.52"

